Molecular target: CHO-CHOP luciferase reporter, UPR activation, luminescence
Test: CHOP reporter induction, apoptotic UPR branch – CHO-CHOP cells, luciferase luminescence, confirmation (AID 489024);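 further: compounds added alone to reporter cells with no tunicamycin stress co-treatment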
The source made the active and inactive calls.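 How the source made its calls: active means compounds whose mean EC50, the dose giving half the maximal reporter activation, is at or below a set limit; inactive means the rest.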
Hi there, use one of these labels in your reply, thanks! active, inactive

Known results for compounds:
CC1=CC(C)(C)Nc2ccc(OC(=O)CN3C(=O)CCC3=O)cc21	active
COc1ccc2c(C(=O)CCl)c[nH]c2c1	active
CC(C)[C@H](NC(=O)OC(C)(C)C)c1nnc(S(=O)(=O)Cc2c(F)cccc2Cl)o1	inactive
CCOC(=O)c1c(C)oc2c1c(C(c1ccccc1)N1CCOCC1)c(O)c1ccccc12 (stereo unspecified)	active
COc1ccc(/C=C2\CN(Cc3ccccc3)C/C(=C\c3ccc(OC)c(O)c3)C2=O)cc1O	active
COc1ccc(C2Nc3ccc4ccccc4c3-c3c2c(=O)oc2ccccc32)cc1 (stereo unspecified)	inactive

Request: Any idea what this test logged for CCOc1cc(NC(=O)CCl)c(OCC)cc1NC(=O)CCl ?
Result: inactive

Request: Any idea what this test logged for S=c1[nH]nc(-c2cc(-c3ccccc3)n[nH]2)n1/N=C/C(Br)=C/c1ccccc1 ?
Result: active
